Tested on: MDA-N
Assay: NCI tumour cell line growth inhibition, 48 h
Answer each item with its documented TGI.

Before answering, review these 4 worked examples.
> print(dat)
                                   molecule  reported.endpoint  observed.measurement
1  COc1cc(C(=O)Nc2cc(C(N)=O)cc(OC)c2OC)cc(NC(=O)/C=C/c2ccccc2)c1OC                TGI              > 100 µM
2                              [Cl][Cd][Cl]                TGI               21.4 µM
3  Cc1ncc([N+](=O)[O-])n1CCNC(=O)Cn1c([N+](=O)[O-])cnc1C                TGI              > 100 µM
4  CC(=O)OCC(Br)C1(C)CCC(C(C)(C)Br)O1 (centres undefined)                TGI              > 100 µM

// for each molecule in input: emit TGI
1. COC(=O)c1ccc(NCc2cc(O)ccc2O)cc1
2. CCOC(=O)c1c(N2CCCC2)[nH]c(=O)c(C(c2cccs2)c2c(O)c(C(=O)OCC)c(N3CCCC3)[nH]c2=O)c1O
3. CNCCC=C1c2ccccc2CCc2ccccc21
4. FC1=C2CCCCCC2SC1(F)F (centres undefined)
5. Cc1cccc(Nc2cnc(N)nc2N)c1
6. Cc1cccc2c(=O)c3cccc([C@@H](C)C(=O)O)c3oc12
7. Nc1nc(N)c2nc(CNc3ccc(C(=O)NC(CCCCNC(=O)c4ccccc4C(=O)O)C(=O)O)cc3)cnc2n1 (centres undefined)
8. Cn1c2ccccc2c(=O)c2[nH]c3ccccc3c21

(A)
19 µM
> 100 µM
29 µM
> 100 µM
> 100 µM
> 100 µM
> 100 µM
> 100 µM

// for each molecule in input: emit TGI
1. S=C1N=C(Cl)/C(=C\c2ccccc2)N1
2. c1ccc2cc3c(cc2c1)nc1ccccn13

(A)
1: > 100 µM; 2: > 100 µM

###

Test system: CAKI-1 renal
Assay: NCI tumour cell line growth inhibition, 48 h
Answer each item with its documented TGI.

Before answering, review these 5 worked examples.
> print(dat)
                                   compound  reported.endpoint  observed.measurement
1              S=C1N=C(Cl)/C(=C\c2ccccc2)N1                TGI              > 100 µM
2  CCC1CN2CCC3(c4ccccc4)CC(C(=O)OC)=CC1C23 (stereo unspecified)                TGI               33.1 µM
3            N#Cc1nc(COCCOCc2ccc(F)cc2)oc1N                TGI              > 100 µM
4  CCCC[C@H]1CCN2C[C@@H](O)[C@@H](O)[C@H]2[C@@H]1O                TGI              > 100 µM
5      O=C(O)CCSC(=O)Nc1ccc(N=Nc2ccccc2)cc1                TGI              > 100 µM

// for each compound in input: emit TGI
1. COc1ccc2nc(NC(=O)C(=O)C(C#N)c3ccc(Cl)c(Cl)c3)sc2c1 (stereo unspecified)
2. C=C(C)C12CC3CC/C(=N/O)C(C1)C3(N1CCOCC1)C/C2=N/O (stereo unspecified)
3. Cc1cc2c(cc1Cl)SC(NNc1ccc([N+](=O)[O-])cc1)=NS2(=O)=O
4. N#CC1=C(Cl)NC(Cl)=C(C#N)C1c1c(Cl)cccc1Cl
5. COc1ccccc1CNC(=O)[C@H](Cc1ccc(O)cn1)NC(C)=O
6. CCn1c2ccccc2c2cc(C(O)c3cccc4ncccc34)ccc21 (stereo unspecified)

(A)
["> 100 µM", "> 100 µM", "> 10 µM", "> 100 µM", "> 100 µM", "> 100 µM"]
